Target: T1, monkey MSLN on HEK293T-monkey MSLN recombinant cells (monkey)
T1 construct: Full-length precursor as transfected; processing on the cell is not described; also called HEK293-monkey MSLN
T1 chain: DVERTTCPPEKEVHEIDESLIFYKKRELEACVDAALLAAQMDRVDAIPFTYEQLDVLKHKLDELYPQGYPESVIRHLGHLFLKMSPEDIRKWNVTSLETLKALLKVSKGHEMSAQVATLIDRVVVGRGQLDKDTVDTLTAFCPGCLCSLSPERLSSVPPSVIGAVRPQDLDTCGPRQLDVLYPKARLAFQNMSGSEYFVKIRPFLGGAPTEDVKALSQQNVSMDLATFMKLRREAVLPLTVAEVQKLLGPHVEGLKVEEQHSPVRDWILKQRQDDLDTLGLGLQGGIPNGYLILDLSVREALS
Test: FACS, HEK293T-monkey MSLN cells
Entries and their measured EC50 follow.
Reply numerically in nM, unit not repeated.

Some binders with recorded EC50:
binder="F7.44.20-H15 (scFv, not shown: small tags and cut ends, also called S009-F7.44.20 humanized antibody VH2a + VL3) scFv: EVQLVQSGAEVKKPGASVKVSCKASGYTFTDYNMDWVRQAPGQGLEWMGDINPSTGGTIYNQKFSGRVTMTEDKSASTVYMELSSLRSEDTAVYYCARRRIGTGYFDVWGQGTTVTVSSGGGGSGGGGSGGGGSEIVLTQSPATLSLSPGERATLSCSASSSVISSYLSWYQQKPGQSPRLLIYRTSNLASGIPARFSGSGSGTDYTLTISSLEPEDFAVYYCHQWSSFPYTFGGGTKVEIK" recorded_value=4.47
binder="F7.44.20-H6 (scFv, not shown: small tags and cut ends, also called S009-F7.44.20 humanized antibody VH1a + VL2) scFv: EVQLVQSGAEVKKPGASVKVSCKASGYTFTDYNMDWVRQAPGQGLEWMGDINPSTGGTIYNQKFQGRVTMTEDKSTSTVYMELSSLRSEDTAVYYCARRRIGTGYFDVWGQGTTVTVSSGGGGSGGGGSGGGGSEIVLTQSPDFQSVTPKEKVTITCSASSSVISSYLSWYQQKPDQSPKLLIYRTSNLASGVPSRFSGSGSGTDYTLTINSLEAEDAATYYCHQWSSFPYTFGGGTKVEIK" recorded_value=15

I would be grateful if you could share the reported EC50 for F7.44.20-H10 (scFv, not shown: small tags and cut ends, also called S009-F7.44.20 humanized antibody VH2 + VL2) scFv: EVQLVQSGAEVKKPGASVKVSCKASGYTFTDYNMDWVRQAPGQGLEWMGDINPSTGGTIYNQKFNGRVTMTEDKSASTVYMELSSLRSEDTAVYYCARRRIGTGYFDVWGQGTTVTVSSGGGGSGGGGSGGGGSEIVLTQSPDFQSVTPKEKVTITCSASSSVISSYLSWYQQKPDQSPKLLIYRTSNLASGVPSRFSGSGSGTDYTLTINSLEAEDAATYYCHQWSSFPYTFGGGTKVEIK . 4.25
